# procedure-details: NCI Yeast Anticancer Drug Screen. Data for the bub3 strain (AID 167)
# cond: S. cerevisiae bub3 mutant strain, at 11.0 µM, hits give high values
Compounds without any hit were thinned out: in the full panel of roughly 79,000, 15% have a hit.
Kindly state growth inhibition for each of the entries shown.
Give bare numbers, in %.

Example entries and their recorded answers appear below.
1. CCCC(=O)Oc1ccc(/C=N/NC(N)=S)nc1 :: -9
2. CC(O)=NC(Cc1ccc2ccccc2c1)C(O)=NC(Cc1ccc(Cl)cc1)C(O)=NC(Cc1c[nH]c2ccccc12)C(O)=NC(CO)C(O)=NC(Cc1ccc(O)cc1)C(O)=NC(CCCN=C(N)N)C(O)=NC(CC(C)C)C(O)=NC(CCCN=C(N)N)C(=O)N1CCCC1C(O)=NC(C)C(=N)O (centres undefined) :: -4
3. CC1SC2(C(=O)Nc3ccc(Cl)cc32)N(c2ccc(Cl)cc2)C1=O (centres undefined) :: 31

// next item, growth inhibition requested
Exercise: Requested read-out: growth inhibition. Entry: CC(C)(C)N=C(NO)c1ccccc1
Key: -4

The reported measurements were obtained from PubChem BioAssay (NCI).
